- System: HOP-62 NSCLC
- ASSAY_NAME: NCI tumour cell line growth inhibition, 48 h
# TGI annotations
OUTCOME_MEASURE: TGI

>>> measured_value("O=[N+]([O-])c1cc(Cl)c2[nH]c3c(Cl)cc([N+](=O)[O-])cc3c2c1")
"> 38.4 µM"
>>> measured_value("COc1ccccc1C#Cc1ccccc1C#CCCCCO")
"> 100 µM"
>>> measured_value("Cc1ccc2c(c1)C(=O)c1nc(C)ccc1C2=O")
"> 100 µM"
>>> measured_value("C=C(C(=O)O)[C@@H]1C[C@@H]2O[C@H]1[C@@H](O)[C@@H](C)CCCC(C)=CCC[C@@]2(C)O")
"> 100 µM"
>>> measured_value("Cc1ccc(/C=N/n2c(-c3ccc(C)cc3)n[nH]c2=O)cc1")
"> 100 µM"
